Measured EC50, listed per entry for reference.
Target: T1, cynomolgus galectin-10-His, YRT isoform (cynomolgus)
T1 construct: also called cynoGal10-YRT; not shown: His tag
T1 chain: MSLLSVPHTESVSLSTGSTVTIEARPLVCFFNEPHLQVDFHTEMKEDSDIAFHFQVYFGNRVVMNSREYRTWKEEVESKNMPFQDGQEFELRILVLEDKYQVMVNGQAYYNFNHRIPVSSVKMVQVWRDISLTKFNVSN
Test: binding ELISA (summary table)

Here are 3 binders together with their reported answers.
[
  {
    "binder": "11F12 scFv-human Fc (Fc fusion, also called 011F12; not shown: CH2-CH3 constant domains of human IgG1 (pUPEX50 scFv-Fc fusion vector)) scFv: QVQLQESGGGLVQPGGSLRLSCAASGFTFSTNYMNWVRQAPGKGLEWVSGITSGGGRTYYADSVKGRFTISRDNAKNTLYLQMNSLKPEDTALYYCARTDHAWLDAWGQGTLVTVSSGGGGSGGGGSGGGGSHSAVTQPPSVSGTLGKTVTISCAGTSSDVGYGNYVSWYQHLPGTAPKLLIYAVSTRASGVPDRFSGSKSGNTASLTISGLQSEDEGDYYCASYSVRNNVVFGGGTRLTVL",
    "EC50": "240 pM"
  },
  {
    "binder": "10B02 scFv-human Fc (Fc fusion, also called 010B02; not shown: CH2-CH3 constant domains of human IgG1 (pUPEX50 scFv-Fc fusion vector)) scFv: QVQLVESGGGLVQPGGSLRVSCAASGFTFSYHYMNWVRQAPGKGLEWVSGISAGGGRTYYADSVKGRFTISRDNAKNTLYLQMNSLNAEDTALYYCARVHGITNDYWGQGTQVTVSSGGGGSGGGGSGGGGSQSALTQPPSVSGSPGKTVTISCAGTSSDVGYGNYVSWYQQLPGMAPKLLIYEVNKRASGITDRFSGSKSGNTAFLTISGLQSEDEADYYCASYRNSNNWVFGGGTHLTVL",
    "EC50": "50 pM"
  },
  {
    "binder": "10D02 scFv-human Fc (Fc fusion, also called 010D02; not shown: CH2-CH3 constant domains of human IgG1 (pUPEX50 scFv-Fc fusion vector)) scFv: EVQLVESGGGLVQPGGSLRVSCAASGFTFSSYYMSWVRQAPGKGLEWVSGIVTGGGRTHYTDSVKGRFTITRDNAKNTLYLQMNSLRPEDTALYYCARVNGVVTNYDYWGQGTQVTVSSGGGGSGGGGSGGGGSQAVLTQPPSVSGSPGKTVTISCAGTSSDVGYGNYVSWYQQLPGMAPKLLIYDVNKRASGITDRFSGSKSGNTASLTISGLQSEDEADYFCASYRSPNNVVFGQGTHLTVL",
    "EC50": "1400 pM"
  }
]

Recorded EC50 for 8H11 scFv-human Fc (Fc fusion, also called 008H11; not shown: CH2-CH3 constant domains of human IgG1 (pUPEX50 scFv-Fc fusion vector)) scFv: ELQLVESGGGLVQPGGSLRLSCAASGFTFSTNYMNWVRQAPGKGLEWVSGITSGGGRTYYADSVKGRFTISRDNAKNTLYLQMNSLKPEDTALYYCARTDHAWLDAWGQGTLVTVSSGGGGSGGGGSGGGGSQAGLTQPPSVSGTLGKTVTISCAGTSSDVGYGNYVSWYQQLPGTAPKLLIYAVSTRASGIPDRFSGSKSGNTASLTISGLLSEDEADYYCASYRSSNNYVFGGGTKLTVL , please?
100 pM

Recorded EC50 for 10A06 scFv-human Fc (Fc fusion, also called 010A06; not shown: CH2-CH3 constant domains of human IgG1 (pUPEX50 scFv-Fc fusion vector)) scFv: QVQLVESGGGLVQPGGSLRLSCAASGFTFGNYDMSWVRQAPGKGPEWVSDINSGGGSTYYADSVKGRFTISRDNAKNSLLLQMNSLKPEDTAVYYCATGYTGYYYWGQGTQVTVSSGGGGSGGGGSGGGGSQTVVTQEPSLSVSPGGTVTLTCGLSSGSVTSSNYPAWYQQTPGQAPRALIYSINSRHSGVPDRFSGSISGNKAALTITGAQAEDEADYYCTLYMGTGSNNVVFGGGTHLTVL , please?
40 pM
